Recorded values, source patent US20100113415A1.

# Study target: Jak2 (Homo sapiens)
# Sequence (O60674 whole entry, species assumed): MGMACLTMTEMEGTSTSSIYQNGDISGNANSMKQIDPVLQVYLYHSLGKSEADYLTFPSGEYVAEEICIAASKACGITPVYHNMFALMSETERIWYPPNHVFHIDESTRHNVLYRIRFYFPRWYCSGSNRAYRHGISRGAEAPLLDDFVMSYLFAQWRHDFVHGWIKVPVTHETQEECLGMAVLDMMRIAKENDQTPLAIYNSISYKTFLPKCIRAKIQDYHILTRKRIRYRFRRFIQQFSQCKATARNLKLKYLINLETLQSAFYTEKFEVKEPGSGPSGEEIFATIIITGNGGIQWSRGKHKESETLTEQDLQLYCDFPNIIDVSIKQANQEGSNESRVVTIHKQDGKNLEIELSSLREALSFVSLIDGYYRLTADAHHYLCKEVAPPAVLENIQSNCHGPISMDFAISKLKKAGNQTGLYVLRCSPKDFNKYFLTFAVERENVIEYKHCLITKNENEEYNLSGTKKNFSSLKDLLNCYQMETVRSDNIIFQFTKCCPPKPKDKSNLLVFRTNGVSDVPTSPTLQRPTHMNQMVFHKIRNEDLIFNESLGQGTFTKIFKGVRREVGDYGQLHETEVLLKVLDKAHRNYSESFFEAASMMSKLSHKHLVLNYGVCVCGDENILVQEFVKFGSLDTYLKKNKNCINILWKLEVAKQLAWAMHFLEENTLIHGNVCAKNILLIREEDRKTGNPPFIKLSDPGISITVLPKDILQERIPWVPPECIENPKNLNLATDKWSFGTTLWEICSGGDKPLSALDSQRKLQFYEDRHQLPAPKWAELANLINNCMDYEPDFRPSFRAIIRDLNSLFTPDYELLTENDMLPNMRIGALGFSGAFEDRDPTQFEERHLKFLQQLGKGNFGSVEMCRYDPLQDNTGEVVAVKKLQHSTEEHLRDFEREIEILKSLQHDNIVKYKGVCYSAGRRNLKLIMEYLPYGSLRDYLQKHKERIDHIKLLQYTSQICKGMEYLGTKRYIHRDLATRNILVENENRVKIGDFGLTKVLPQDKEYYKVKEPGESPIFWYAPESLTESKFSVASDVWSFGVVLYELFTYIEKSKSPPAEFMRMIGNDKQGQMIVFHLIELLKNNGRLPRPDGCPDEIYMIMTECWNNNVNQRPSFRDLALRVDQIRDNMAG
Reported IC50 values for the following molecules.

Molecule: CC1CCc2c(-c3ccccc3Cl)nc3[nH]nc(N)c3c2C1 (centres unmarked)
Cmp: >
IC50 (nM): 100000
//
Molecule: Cc1ccccc1-c1nc2[nH]nc(N)c2c2c1CCC(C)(C)C2
Cmp: =
IC50 (nM): 1000
